Reference source for all entries: ChEMBL document CHEMBL1134752

assay: Half-life in human; type: ADME, organism-based; settings: in vivo
Test readout: half-life (days)
Respond numerically; units are days and should not be typed.

[in] What half-life value was documented for this compound, CC(C)OC1=C(c2ccc(S(C)(=O)=O)cc2)C(C)(C)OC1=O ?
[out] 2.67

###

Assignment: determine reported IC50 for the given compounds.
Target: Prostaglandin G/H synthase 2 (Homo sapiens)
Sequence (P35354 whole entry): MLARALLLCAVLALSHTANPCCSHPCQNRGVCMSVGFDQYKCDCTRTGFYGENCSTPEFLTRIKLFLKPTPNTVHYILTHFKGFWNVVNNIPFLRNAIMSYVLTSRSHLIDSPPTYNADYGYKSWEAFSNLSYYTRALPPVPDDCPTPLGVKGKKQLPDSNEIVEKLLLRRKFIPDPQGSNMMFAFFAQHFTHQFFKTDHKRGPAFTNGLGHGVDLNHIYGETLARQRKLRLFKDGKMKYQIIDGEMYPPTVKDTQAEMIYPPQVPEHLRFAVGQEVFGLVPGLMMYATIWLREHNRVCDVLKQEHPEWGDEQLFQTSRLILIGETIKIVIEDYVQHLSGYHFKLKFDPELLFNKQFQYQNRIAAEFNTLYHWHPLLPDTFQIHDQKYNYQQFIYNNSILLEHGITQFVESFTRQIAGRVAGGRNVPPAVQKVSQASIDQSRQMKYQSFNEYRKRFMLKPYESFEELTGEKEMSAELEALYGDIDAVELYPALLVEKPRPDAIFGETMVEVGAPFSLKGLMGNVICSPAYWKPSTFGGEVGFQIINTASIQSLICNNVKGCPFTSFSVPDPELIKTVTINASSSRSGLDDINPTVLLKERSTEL
Assay: In vitro inhibition of Prostaglandin G/H synthase 2 in human whole blood assay
Respond numerically; units are µM and should not be typed.

[in] Lab note: need IC50 with Prostaglandin G/H synthase 2 (Homo sapiens) for entry Cc1ccc(-c2ncc(Cl)cc2-c2ccc(S(C)(=O)=O)cc2)c[n+]1[O-] , please look it up.
[out] 18

[in] Lab note: need IC50 with Prostaglandin G/H synthase 2 (Homo sapiens) for entry CS(=O)(=O)c1ccc(-c2cc(Cl)cnc2-c2ccc(C(=O)O)nc2)cc1 , please look it up.
[out] 21
